testDetails: FRG1 promoter luciferase signal modulators, primary screen, FRG1 inhibition for FSHD, cell-based, C2C12 myotubes, firefly/Renilla luciferase, luminescence (AID 1084)
condition: higher = more signal, called active from +8 up or from −8 down
Decide using z-score: a value greater than or equal to -1 is Satisfied, a smaller one is Not satisfied.

# compound, answerLabel
data = [
    ("COc1ccc(C(=O)Nc2cccc(CN3C(=O)[C@@]4(O[C@@H](CCn5cc(CCO)nn5)[C@H]([Si](C)(C)c5ccc(OC)cc5)[C@H]4C)c4ccccc43)c2)cc1", "Not satisfied"),
    ("C=CCNC(=O)[C@@H]1[C@H]2C(=O)O[C@H](c3ccccc3)[C@H](c3ccccc3)N2[C@H](c2ccc(O)cc2)[C@@]12C(=O)N(C(=O)OCCOC)c1ccccc12", "Satisfied"),
    ("COc1ccc(C(O)C2C=CC3C(=O)N(C)C(=O)C3N2Nc2ccccc2)cc1OCc1ccccc1 (stereo not given)", "Not satisfied"),
    ("C=C[C@H](C)[C@@H](O)c1ccc(O)c2ccccc12", "Satisfied"),
    ("O=C1O[C@@H](c2ccccc2)[C@@H](c2ccccc2)N2[C@@H](c3ccc(O)cc3)[C@]3(C(=O)Nc4ccc(C#CC5=CCCCC5)cc43)[C@@H](C(=O)O)[C@H]12", "Satisfied"),
    ("CCCNC(=O)[C@@]1(c2ccc([N+](=O)[O-])cc2)CC(=O)N(CC23CC4CC(CC(C4)C2)C3)[C@@H]1c1ccc(CO)cc1", "Not satisfied"),
    ("CCC[C@@H]1C=C(C(=O)O)[C@H](c2ccc(C)cc2)N1S(=O)(=O)c1ccc(C)cc1", "Not satisfied"),
    ("O=C1O[C@@H](c2ccccc2)[C@@H](c2ccccc2)N2[C@@H](c3ccccc3OCCO)[C@]3(C(=O)Nc4ccc(C#CC5(O)CCCCCC5)cc43)[C@@H](C(=O)Nc3nc4ccccc4s3)[C@H]12", "Satisfied"),
]

Confirm if z-score reported for the compound Cc1ccc(S[C@]2(C(=O)NCc3ccccc3)CC(=O)N(Cc3ccccc3)[C@@H]2c2ccc(CO)cc2)cc1 is -1 or above.
Not satisfied
